Species: Rattus norvegicus
Test: DrugMatrix - Regimen: Daily Repeat
Assay type: toxicity, organism-based, Sprague-Dawley
Set-up: regimen Daily Repeat, gender Male, age 6-8 weeks
Details: in vivo, po, 0 mg/kg, 72 h, tissue Blood, route oral GAVAGE, dose level Control, time 3 day, vehicle 100 % WATER
test_readout: MEAN CORPUSCULAR HEMOGLOBIN CONCENTRATION (G/DL)
// return numeric value only (unit: G/DL, not printed)

Entry under test: Cc1cc(C(C)(C)C)c(O)c(C)c1CC1=NCCN1 . Its MEAN CORPUSCULAR HEMOGLOBIN CONCENTRATION was 40.65

Every entry's value here was drawn from ChEMBL document CHEMBL3885881.
